# target-entity: Muscarinic acetylcholine receptor M1 (Homo sapiens)
# measurement-protocol: Agonist activity at human muscarinic M1 receptor expressed in CHO cells assessed as effect on acetylcholine-induced intracellular calcium level by FLIPR assay
pEC50: −log10 of the molar value.
Use satisfied when the recorded pEC50 is no lower than 6; use not satisfied when it is lower.

Req: Please check the record Cc1cccc(-c2cccc(Cl)c2)c1C(=O)NCC1CCNCC1 and state if its pEC50 is at or above 6.
Resp: not satisfied

Req: Exam item: decide whether the reported pEC50 for O=C(NCC1CCNCC1)c1ccc(F)cc1-c1cccc(Cl)c1 is at least 6.
Resp: not satisfied

Req: pEC50 >= 6 for CC[C@H]1CNCC[C@@H]1CNC(=O)c1c(F)cccc1-c1cccc(Cl)c1 ?
Resp: satisfied

Req: Textbook exercise: given the entry O=C(NCC1CCNCC1)c1ncccc1-c1cccc(Cl)c1 , state whether its pEC50 is greater than or equal to 6.
Resp: not satisfied

Req: Is reported pEC50 greater than or equal to 6 here: O=C(NCc1ccccc1-c1cccc(Cl)c1)C1CCNCC1
Resp: satisfied

Req: Is the recorded value of pEC50 equal to or greater than 6 for this compound? Fc1cccc(-c2cc(Cl)ccc2Cl)c1-c1nc(C2CCNCC2)no1
Resp: satisfied

Req: Decide: is the reported value of pEC50 for O=C(CC1CCNCC1)Nc1ccccc1-c1cccc(Cl)c1 equal to or greater than 6?
Resp: not satisfied

Req: Does pEC50 meet or surpass 6 for CC(=O)N(Cc1ccccc1-c1cccc(Cl)c1)CC1CCNCC1 ?
Resp: satisfied

Req: Quick check, pEC50 >= 6? O=C(NCCC1CCNCC1)c1ccccc1-c1cccc(Cl)c1
Resp: not satisfied

###

Task for the reader: assign each of the following molecules its reported pEC50.
# target-entity: Muscarinic acetylcholine receptor M1 (Homo sapiens)
# measurement-protocol: Agonist activity at human muscarinic M1 receptor expressed in CHO cells assessed as effect on acetylcholine-induced intracellular calcium level by FLIPR assay
Lab note: report pEC50 as minus log10 of the concentration in molar units, number only.

Req: Respond only with pEC50 recorded for C[C@H]1CNCC[C@H]1CNC(=O)c1c(F)cccc1-c1cccc(Cl)c1 (relative stereo)
Resp: 7.70

Req: Look up pEC50 of C[C@H]1CNCC[C@]1(F)CNC(=O)c1c(F)cccc1-c1cccc(Cl)c1 and report it.
Resp: 8.00

###

# target-entity: Muscarinic acetylcholine receptor M3 (Homo sapiens)
# Sequence (P20309 whole entry): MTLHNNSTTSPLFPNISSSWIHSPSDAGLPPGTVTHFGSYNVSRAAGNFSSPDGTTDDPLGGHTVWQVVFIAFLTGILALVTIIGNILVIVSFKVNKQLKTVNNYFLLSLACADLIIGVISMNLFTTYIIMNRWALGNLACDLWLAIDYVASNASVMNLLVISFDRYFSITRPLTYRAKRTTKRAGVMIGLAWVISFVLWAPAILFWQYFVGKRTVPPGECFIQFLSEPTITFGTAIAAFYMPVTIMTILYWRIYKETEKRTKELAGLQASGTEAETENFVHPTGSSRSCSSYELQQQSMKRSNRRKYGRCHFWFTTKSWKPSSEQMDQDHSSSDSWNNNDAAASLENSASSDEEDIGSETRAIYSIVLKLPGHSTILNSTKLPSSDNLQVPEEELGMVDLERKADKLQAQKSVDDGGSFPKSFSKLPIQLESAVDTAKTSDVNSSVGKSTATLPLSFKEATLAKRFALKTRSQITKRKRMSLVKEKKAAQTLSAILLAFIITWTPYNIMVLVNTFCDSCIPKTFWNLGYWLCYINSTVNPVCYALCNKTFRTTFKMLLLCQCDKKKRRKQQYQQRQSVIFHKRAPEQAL
# measurement-protocol: Inhibition of human muscarinic M3 receptor expressed in CHO cells
Binary call on IC50 with cut-off 1000 nM: strictly below means Condition met, and equality or higher means Condition not met.

Req: Field: below-cutoff. Rule: recorded IC50 strictly less than 1000 nM. Subject: Clc1cccc(-c2ccccc2/C=C/CC2CCNCC2)c1
Resp: Condition met

Req: Quick check: IC50 of CC[C@H]1CNCC[C@@H]1CNC(=O)c1c(F)cccc1-c1cccc(Cl)c1 under 1000 nM?
Resp: Condition not met

Req: Dear reviewer, please state whether Fc1cccc(-c2cc(Cl)ccc2Cl)c1-c1nc(C2CCNCC2)no1 has IC50 strictly beneath 1000 nM.
Resp: Condition not met

Req: Bench note: check whether O=C(NC[C@H]1CCNC[C@H]1F)c1c(F)cccc1-c1cccc(Cl)c1 shows IC50 below 1000 nM
Resp: Condition not met

Req: Is IC50 of O=C(NCC1(F)CCNCC1)c1c(F)cccc1-c1cccc(Cl)c1 strictly below 1000 nM?
Resp: Condition not met

Req: Dear colleague, could you confirm whether IC50 of O=C(NCc1ccccc1-c1cccc(Cl)c1)C1CCNCC1 falls below 1000 nM? Thanks.
Resp: Condition not met

Req: Does O=C(Cc1ccccc1-c1cccc(Cl)c1)NC1CCNCC1 have IC50 strictly under 1000 nM?
Resp: Condition met

Req: Below 1000 nM on IC50? Entry O=C(NCC1CCNCC1)c1c(F)cccc1-c1cc(Cl)ccc1Cl
Resp: Condition not met

Req: Lab log: compare recorded IC50 with 1000 nM; is it strictly lower for O=C(NCC1=CCNCC1)c1c(F)cccc1-c1cccc(Cl)c1 ?
Resp: Condition not met

Req: Does C[C@H]1CNCC[C@]1(F)CNC(=O)c1c(F)cccc1-c1cccc(Cl)c1 have IC50 strictly under 1000 nM?
Resp: Condition not met

Req: Could you please tell me whether IC50 recorded for C[C@H]1CNCC[C@@H]1CNC(=O)c1c(F)cccc1-c1cccc(Cl)c1 (relative stereo) is less than 1000 nM?
Resp: Condition met

###

# target-entity: Muscarinic acetylcholine receptor M1 (Homo sapiens)
# Sequence (P11229 whole entry): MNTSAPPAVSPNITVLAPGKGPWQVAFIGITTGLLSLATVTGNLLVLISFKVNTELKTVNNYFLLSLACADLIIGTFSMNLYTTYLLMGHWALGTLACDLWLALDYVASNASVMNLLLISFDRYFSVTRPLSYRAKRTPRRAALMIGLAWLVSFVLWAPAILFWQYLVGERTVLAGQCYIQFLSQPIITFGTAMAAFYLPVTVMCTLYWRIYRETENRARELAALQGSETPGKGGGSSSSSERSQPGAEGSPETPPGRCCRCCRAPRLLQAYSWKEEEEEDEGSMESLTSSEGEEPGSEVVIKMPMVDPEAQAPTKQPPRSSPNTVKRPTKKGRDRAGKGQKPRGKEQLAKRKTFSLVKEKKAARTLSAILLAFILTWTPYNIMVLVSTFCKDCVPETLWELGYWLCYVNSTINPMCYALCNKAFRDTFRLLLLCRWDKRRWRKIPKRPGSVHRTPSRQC
# measurement-protocol: Agonist activity at human muscarinic M1 receptor expressed in CHO cells assessed as effect on acetylcholine-induced intracellular calcium level by FLIPR assay
pEC50: −log10 of the molar value.
measured-attribute: pEC50

Req: // fetch pEC50 given entry Clc1cccc(-c2ccccc2CNCC2CCNCC2)c1
Resp: < 5.00

Req: Give the reported pEC50 for this compound. Fc1cccc(-c2cccc(Cl)c2)c1-c1noc(C2CCNCC2)n1
Resp: < 5.00

Req: Given the compound CN(C(=O)CC1CCNCC1)c1ccccc1-c1cccc(Cl)c1 , write its reported pEC50.
Resp: < 5.00
